# System: SCC-61 cell line (HNSCC)
# ASSAY EXPLANATION: MTT cytotoxicity IC50 assay, SCC-61
# Format: cell-based, human
# STUDY CONDITIONS: Homo sapiens; Example 13; SCC-61, MTT
# Method: The cells were seeded at density 5×10^3 cells/well. After 24 h pre-incubation period, cells were treated with 0.01 mM to 2.0 mM of freshly prepared KS1 and KS2 along with ascorbate (n=3) for 48 h. 0.2% of DMSO served as vehicle control. After 48 h, the solutions were removed from all plates and MTT assays performed following the published protocols. IC50 values are presented as mean±SD from at least three independent experiments. […]
VALUE TYPE: pIC50
Recall that pIC50 is obtained by taking minus log10 of the concentration measured in molar.

INSERT INTO assay_data (compound, value_type, assay_value) VALUES
  ('O=C1O[C@H]([C@@H](O)CO)C(O)=C1O [ascorbate, ascorbic acid, reference compound]', 'pIC50', 2.86);

Here is another compound to look at.
QUERY: Note pIC50 for the compound shown: O=C1O/C(=C/CCl)C(O)=C1OCc1ccc(OCCF)cc1 [KS1]
RESULT: 3.14

Numbers sourced from patent US20240261443A1.
